Reference source for all entries: the nanobody polyreactivity screen of Harvey et al. (2022)

# test_method_notes: yeast display, Sf9 membrane polyspecificity reagent, FACS + sequencing; frameworks hold sequencing errors
readout_kind: polyreactivity (PSR sort gate)

sequence_data: QVQLVESGGGLVQAGGSLRLSCAASGSTFNRYAMGWYRPAPGKERELVASISWGGGRTYYADSVKGRFTISRDNAKNTVDFQLNSLKPEDTAVYFCATDRYDRHYEVDYWGQGTQVTVSS
value_measured: low polyreactivity
//
sequence_data: QVQLVESVVGLVQAGGSLRLSCADSGSTFRSNAMGWYRQAPGKETELVAGITSGTSTNYADSVKGRFTISRDNAKNTVYLQMNSLKPEDTAVYYCNTDRIWYGPEYDFWGQGTQVTVSS
value_measured: low polyreactivity
//
sequence_data: QVQLVESGGGLVQAGGSLRLSCAASGRISQHNAMGWYRQAPGKERELVAAISWIGTSTYYADSVKGRFTISRDNAKNTVYLQMNSLKPEDTAVYYGWSTRGPPYIYLNYNYWGQGTQVTVSS
value_measured: low polyreactivity
